Data credit: patent US20210361740A1

biological target: cMyc-tagged C-terminal TLR2 (cTLR2) recombinant protein, C-terminal TIR domain of TLR2 (640-784 amino acids) (UniProt Q9QUN7); assay: SPR, cTLR2 immobilised, peptide as analyte; equilibrium response versus peptide concentration; wtTIDM peptide
Sequence (Q9QUN7 640-784 limits assumed, form in doubt): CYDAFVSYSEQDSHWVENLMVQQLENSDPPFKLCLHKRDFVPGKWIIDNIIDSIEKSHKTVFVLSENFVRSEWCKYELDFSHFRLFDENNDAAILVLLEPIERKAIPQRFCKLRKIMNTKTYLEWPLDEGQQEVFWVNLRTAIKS
readout: pKd
Numbers only, as −log10 of the molar value.

// recorded pKd for DRQIKIWFQNRRMKWKKPGAHQK [Wild type (wt) TIDM peptide (TLR2-interacting domain of MyD88 joined to Antennapedia homeodomain)] : 5.10
